Source: patent US20240352000A1

target: EGFR A763_Y764insFHEA (Homo sapiens (Human), UniProt P00533, INS763FHEA); experiment: HTRF enzyme assay, EGFR Ex20 insertion mutant enzyme; details: recombinant enzyme, 37° C. 2 hours
Sequence (P00533 other isoform, or with tags, fused parts or gaps del 1-694/ins FHEA behind 763 limits assumed): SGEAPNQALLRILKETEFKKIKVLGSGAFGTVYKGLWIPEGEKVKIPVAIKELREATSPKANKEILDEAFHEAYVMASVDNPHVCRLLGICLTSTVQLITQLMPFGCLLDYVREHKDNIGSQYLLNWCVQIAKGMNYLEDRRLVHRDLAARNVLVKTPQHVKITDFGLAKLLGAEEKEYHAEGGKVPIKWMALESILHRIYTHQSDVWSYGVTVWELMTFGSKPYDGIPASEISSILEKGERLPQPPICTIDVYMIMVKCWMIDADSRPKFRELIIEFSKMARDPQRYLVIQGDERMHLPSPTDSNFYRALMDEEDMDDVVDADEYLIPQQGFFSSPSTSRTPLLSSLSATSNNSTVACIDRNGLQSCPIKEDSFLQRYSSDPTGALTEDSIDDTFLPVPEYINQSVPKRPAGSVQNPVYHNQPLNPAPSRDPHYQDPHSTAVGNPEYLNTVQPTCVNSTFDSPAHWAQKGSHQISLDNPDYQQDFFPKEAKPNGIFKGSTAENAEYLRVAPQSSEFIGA
Let's look at some compounds and their measured IC50.

The examples below pair each entry with its known result.
# compound, IC50
data = [
    ("CCC(=O)N1CCCc2cccc(Nc3nc(Nc4ccc(N5CCC(N6CCN(C)CC6)CC5)cc4OC)ncc3Cl)c21 [Example 16]", "> 100 nM"),
    ("CCC(=O)N1CCc2cccc(Nc3nc(Nc4ccc(N5CCC(N6CCN(C)CC6)CC5)cc4OC)ncc3Cl)c21 [Example 14]", "> 100 nM"),
]

// fetch IC50 given entry COc1cc(N2CCC(N3CCN(C)CC3)CC2)ccc1Nc1ncc(Cl)c(Nc2cccc3c2N(C(C)=O)CCC3)n1 [Example 15]
> 100 nM
